tgt: T1, human TREM2 Fc fusion (entire TREM2 ECD; only one Fc arm fused to TREM2) (human, UniProt Q9NZC2 19-174)
T1 construct: also called huTREM2-Fc; recombinant hTREM2
T1 sequence: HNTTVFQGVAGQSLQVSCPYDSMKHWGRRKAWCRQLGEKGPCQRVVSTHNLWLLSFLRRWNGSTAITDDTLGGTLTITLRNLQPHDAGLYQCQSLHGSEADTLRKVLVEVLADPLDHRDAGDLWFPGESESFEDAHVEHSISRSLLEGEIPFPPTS
experiment-description: BLI, IgG, avid
Procedure: Briefly, IgGs were loaded on-line onto AHQ sensors, Sensors were equilibrated off-line in assay buffer for 30 minutes and then monitored on-line for 60 seconds for baseline establishment. For avid binding measurement, sensors with loaded IgGs were exposed to 100 nM antigen (human or cynomolgus monkey TREM2 Fe fusion using the entire TREM2 ECD; only one Fc arm was fused to TREM2) for 3 minutes, afterwards they were transferred to assay buffer for 3 minutes for off-rate measurement. […]
measurement-name: pKd
A value of pKd is the negative decimal logarithm of a concentration given in moles per litre.

# binder, number
data = [
    ("AL2p-3 (antibody, V domains shown, AL2p-h50 variant; Fab and IgG formats under one id) VH: QVQLVQSGAEVKKPGSSVKVSCKASGYAFSSSWMNWVRQAPGQGLEWMGRIYPGEGDTNYAQKFQGRVTITADESTSTAYMELSSLRSEDTAVYYCARLLRNQPGESYAMDYWGQGTLVTVSS VL: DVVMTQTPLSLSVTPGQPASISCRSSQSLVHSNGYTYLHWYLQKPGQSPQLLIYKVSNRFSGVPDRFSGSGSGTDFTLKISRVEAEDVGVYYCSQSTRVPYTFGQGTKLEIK", 8.92),
]

We next turn to a different binder, shown below.
Answer with the recorded pKd of AL2p-32 (antibody, V domains shown, Fab and IgG formats under one id) VH: QVQLVQSGAEVKKPGSSVKVSCKASGYAFSSEWMNWVRQAPGQGLEWMGRIYPGDGDTNYAQKFQGRVTITADESTSTAYMELSSLRSEDTAVYYCARLLRNQPGESYAMDYWGQGTLVTVSS VL: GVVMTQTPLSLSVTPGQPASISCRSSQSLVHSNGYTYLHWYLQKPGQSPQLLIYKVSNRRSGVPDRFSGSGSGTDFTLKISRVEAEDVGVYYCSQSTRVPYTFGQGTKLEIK only.
8.95
